# maps each entry to its TGI
# Tested on: HOP-62 NSCLC
# test: NCI tumour cell line growth inhibition, 48 h

Some molecules with known TGI results, for comparison:
1) CN(C)CC/C(=N\Nc1ccc(Cl)cc1Cl)c1ccccc1; 30.3 µM
2) O=C(N/N=C/c1cc(Br)cc(Br)c1[O-])c1ccccc1O.O=C(N/N=C/c1cc(Br)cc(Br)c1[O-])c1ccccc1O.[Ni+2]; 1.82 µM
3) O=C1c2ccccc2C(=O)c2[nH]c(Cc3ccc(F)cc3)nc21; 44.3 µM
4) Cc1ccc(Sc2cc3c(oc2=O)-c2ccccc2OC3O)cc1 (stereo not drawn); 44.7 µM
5) Oc1ccc(Cl)cc1C1=NC(/N=C\c2ccccc2)=NC(c2ccccc2)C1 (stereo not drawn); > 100 µM

In the following, a different molecule is considered.
INPUT: What value of TGI has been reported for the following molecule? O=C(O)c1cc2ccccc2c2c1C(=O)c1ccccc1-2
OUTPUT: > 100 µM
